Experiment: NCI Yeast Anticancer Drug Screen. Data for the mec2-1 strain (AID 157)
Settings: S. cerevisiae mec2-1 strain, at 100.0 µM, active compounds read high
About 79,000 compounds went through this panel and 15% of them were active in at least one assay; those are over-represented in the sample as a whole.
QUANTITY NAME: growth inhibition (%)
Quick note: give the figure in %, leave out the unit.

{"columns": ["MOLECULE", "UNIT NAME", "growth inhibition"],
 "data": [
  ["Cc1cc(N=C2C=CC(=[N+](C)C)C=C2)c(N)cc1N", "%", 59],
  ["C=Cc1cnc([N+](=O)[O-])n1C", "%", 95],
  ["Cc1nc2c(ncn2CCO)c(=O)[nH]1", "%", -13]
]}

CCCCCCCCCCCCCCCCCCNC(=S)/N=C\C1=C(O)c2ccccc2C1=O yielded growth inhibition of 2

COc1ccc(N=Nc2ccc3oc(=O)c(C(=O)Nc4ccccc4)cc3c2)cc1 yielded growth inhibition of 95

CC(=O)CC(=O)/C=C/c1cccs1 yielded growth inhibition of 77

* * *

Experiment: NCI Yeast Anticancer Drug Screen. Data for the cln2 rad14 strain (AID 165);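 further: 0% = growth equal to vehicle treated cultures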
Conditions: S. cerevisiae cln2 rad14 strain, at 5.0 µM (retest, dose inferred, filed as 0.5), active compounds read high
This is part of a sample that, as a whole, favours compounds with a hit. Of some 79,000 tested, about 15% had one in any assay. Calls of active or inactive are those of the source. No stated cut-off is given here; in the data, active means growth inhibition above about 70%; inactive means the rest.
QUANTITY NAME: growth inhibition

Examples from the recorded data:
{"columns": ["MOLECULE", "growth inhibition"],
 "data": [
  ["CN(C)CCN1C(=O)c2cccc3cc([N+](=O)[O-])cc(c23)C1=O", "5% (inactive)"],
  ["Oc1ccc(C=Nc2ccccc2O)cc1", "11% (inactive)"],
  ["CCCCCCCCCCCCCCCCNC(=O)/C(=C\\c1ccc(Cl)c(Cl)c1)NC(=O)c1ccccc1", "46% (inactive)"],
  ["CN(CC(=O)O)c1ccc(/C=C/c2ccnc3ccccc23)cc1", "-2% (inactive)"],
  ["Nc1nc(N)c2cc(Sc3ccc4ccccc4c3)ccc2n1", "10% (inactive)"]
]}

COC(=O)c1n[nH]c(C)c1N=NN(C)CCC#N yielded growth inhibition of -41% (inactive)

N#C/C(=C\c1ccccc1)c1ccccc1F yielded growth inhibition of -10% (inactive)

Cc1cc(C)c(N2C(=O)CC(Sc3ccccc3N)C2=O)c(C)c1 (centres undefined) yielded growth inhibition of 34% (inactive)

COC(=O)c1oc([N+](=O)[O-])c(Cl)c1Cl yielded growth inhibition of 10% (inactive)

[N-]=[N+]=NC(c1ccccc1)(c1ccccc1)c1ccccc1 yielded growth inhibition of 17% (inactive)

CC(C)(C)[OH+][O-].[O-]c1ccc(Cl)cc1C=Nc1ccc(Cl)cc1[O-].[O]=[V] yielded growth inhibition of 6% (inactive)

S=c1[nH]nc(-c2ccc(Cl)cc2)s1 yielded growth inhibition of 52% (inactive)

N#CSC1CCCCNC1=O (centres undefined) yielded growth inhibition of -58% (inactive)

S=c1[nH]c2c(Cl)c(Cl)c(Cl)c(Cl)c2[nH]1 yielded growth inhibition of 61% (inactive)

CCCCC(CC)C(=O)Oc1ccc(C(=O)c2ccccc2)c(O)c1 (centres undefined) yielded growth inhibition of 48% (inactive)

CN(NC(=O)/C(=C/c1ccc(O)cc1)NC(=O)c1ccccc1)c1ccnc2cc(Cl)ccc12 yielded growth inhibition of -3% (inactive)

O=C1C=CC(=O)N1c1ccc(N2C(=O)C=CC2=O)cc1 yielded growth inhibition of 47% (inactive)

CCn1ncc(N=O)c1N yielded growth inhibition of 9% (inactive)

O=C1C(Cl)=C(Cl)C(Cl)(Cl)C(Cl)C1(Cl)Cl (centres undefined) yielded growth inhibition of 9% (inactive)

Nc1ccc2c(c1)sc1ccccc12 yielded growth inhibition of -60% (inactive)

COc1cc(N)ccc1Nc1c2ccccc2nc2ccccc12 yielded growth inhibition of 40% (inactive)

O=C1C=CC(=Nc2ccccc2)c2ccccc21 yielded growth inhibition of -17% (inactive)

CCOP1(=O)C=C(Sc2ccc([N+](=O)[O-])cc2[N+](=O)[O-])C(C)(C)O1 (centres undefined) yielded growth inhibition of 7% (inactive)

NP1(Oc2ccc(F)cc2)=NP(N)(Oc2ccc(F)cc2)=NP(Oc2ccc(F)cc2)(Oc2ccc(F)cc2)=N1 (centres undefined) yielded growth inhibition of 5% (inactive)
